Tested on: CCRF-CEM
Experiment: Cytotoxic concentration required to inhibit 50% […] in CEM cells
Type: functional
Settings: Homo sapiens
Catalogue of CC50 values
Readout: CC50

> print(dat)
                                   compound  measured
1  COC(=O)[C@H](Cc1c[nH]c2ccccc12)NP(=O)(OC)OCC1OC(n2cc(C)c(=O)[nH]c2=O)CC1F (some centres undefined)  > 100 µM
2  COC(=O)[C@H](Cc1ccccc1)NP(=O)(OC)OCC1OC(n2cc(C)c(=O)[nH]c2=O)CC1N=[N+]=[N-] (some centres undefined)   > 50 µM
3  COC(=O)[C@H](Cc1c[nH]c2ccccc12)NP(=O)(O)OC[C@H]1O[C@@H](n2cc(C)c(=O)[nH]c2=O)C[C@@H]1N=[N+]=[N-]  > 100 µM
4  COC(=O)[C@H](Cc1c[nH]c2ccccc12)NP(=O)(O)OCC1OC(n2cc(C)c(=O)[nH]c2=O)CC1F (some centres undefined)   35.1 µM

---

System: CCRF-CEM
Test: Cytotoxic concentration required to inhibit 50% […] in CEM cells
Assay type: functional
Details: Homo sapiens
Readout: CC50

> print(dat)
                                   compound  readout   measured
1  COC(=O)[C@H](Cc1c[nH]c2ccccc12)NP(=O)(OC)OCC1OC(n2cc(C)c(=O)[nH]c2=O)CC1N=[N+]=[N-] (some centres not stated)     CC50    > 50 µM
2  COC(=O)[C@H](Cc1ccccc1)NP(=O)(OC)OCC1OC(n2cc(C)c(=O)[nH]c2=O)CC1F (some centres not stated)     CC50   > 100 µM
3  COC(=O)[C@H](Cc1ccccc1)NP(=O)(OCCC#N)OCC1OC(n2cc(C)c(=O)[nH]c2=O)CC1N=[N+]=[N-] (some centres not stated)     CC50   > 100 µM
4  COC(=O)[C@H](Cc1c[nH]c2ccccc12)NP(=O)(OCCC#N)OCC1OC(n2cc(C)c(=O)[nH]c2=O)CC1F (some centres not stated)     CC50  > 95.6 µM
5  Cc1cn([C@H]2C[C@H](N=[N+]=[N-])[C@@H](CO)O2)c(=O)[nH]c1=O     CC50    14.3 µM
6  COC(=O)[C@H](Cc1c[nH]c2ccccc12)NP(=O)(OCCC#N)OCC1OC(n2cc(C)c(=O)[nH]c2=O)CC1N=[N+]=[N-] (some centres not stated)     CC50   > 100 µM
7  COC(=O)[C@H](Cc1ccccc1)NP(=O)(O)OCC1OC(n2cc(C)c(=O)[nH]c2=O)CC1N=[N+]=[N-] (some centres not stated)     CC50   > 100 µM
